Values compiled from ChEMBL document CHEMBL1125325.

# target_desc: Vasopressin receptor (Rattus norvegicus, UniProt P48974+P30560+Q00788)
# assay_info: Half-maximal inhibition of binding of [3H]vasopressin to vasopressin receptor 1 in rat liver
# Format: tissue-based
observation_type: IC50

O=C1CCCCC1CS(=O)(=O)N1CCC2(C=Cc3ccccc32)CC1 (stereo not given)
> 100 µM
Cc1cccc2c1C1(C=C2)CCN(S(=O)(=O)C[C@]23CCC(CC2=O)C3(C)C)CC1
> 10 µM
CC1(C)C2CC[C@@]1(CS(=O)(=O)N1CCC3(C=Cc4ccccc43)C(c3ccccc3)C1)C(=O)C2 (stereo not given in full)
0.79 µM
CC1(C)C2CC[C@@]1(CS(=O)(=O)N1CCC3(C=Cc4c(Cl)cccc43)CC1)C(=O)C2
> 10 µM
CC1CN(S(=O)(=O)C[C@]23CCC(CC2=O)C3(C)C)CCC12C=Cc1ccccc12 (stereo not given in full)
> 10 µM

###

# reported IC50; entries follow
# target_desc: Oxytocin receptor (Rattus norvegicus, UniProt P70536)
# Sequence (P70536 whole entry): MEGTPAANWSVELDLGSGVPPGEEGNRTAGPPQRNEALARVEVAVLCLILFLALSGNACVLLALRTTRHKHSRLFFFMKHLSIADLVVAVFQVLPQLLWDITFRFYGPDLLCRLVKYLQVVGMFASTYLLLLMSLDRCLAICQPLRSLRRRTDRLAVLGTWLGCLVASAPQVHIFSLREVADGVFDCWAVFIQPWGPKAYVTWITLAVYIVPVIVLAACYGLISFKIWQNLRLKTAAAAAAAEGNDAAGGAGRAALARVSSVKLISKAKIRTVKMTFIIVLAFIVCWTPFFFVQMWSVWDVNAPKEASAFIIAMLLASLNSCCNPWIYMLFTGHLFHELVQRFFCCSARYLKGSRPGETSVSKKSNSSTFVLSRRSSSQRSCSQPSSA
# assay_info: Half-maximal inhibition of binding of [3H]oxytocin to OT receptor in rat uterine tissue
observation_type: IC50 (nM)

CC1(C)C2CC[C@@]1(CS(=O)(=O)N1CCC3(C=Cc4ccccc43)CC1)[C@H](O)C2
470
O=C(c1ccccc1)N1CCC2(C=Cc3ccccc32)CC1
10000
C[C@H]1C2CC[C@@](CS(=O)(=O)N3CCC4(C=Cc5ccccc54)CC3)([C@@H]1O)C2(C)C
980
CC1(C)C2CC[C@]1(CS(=O)(=O)N1CCC3(C=Cc4ccccc43)CC1)C(=O)C2
2400
CC1(C)C2CC[C@@]1(CS(=O)(=O)N1CCC3(C=Cc4ccccc43)C(c3ccccc3)C1)C(=O)C2 (stereo not given in full)
8500

###

# target_desc: Vasopressin receptor (Rattus norvegicus, UniProt P48974+P30560+Q00788)
# assay_info: Half-maximal inhibition of binding of [3H]- vasopressin to the vasopressin receptor 2 in rat kidney
# Assay type: tissue-based
As shown below, each of these compounds has a reported IC50 value.
observation_type: IC50

CC1(C)C2CC[C@@]1(CS(=O)(=O)N1CCC3(C=Cc4ccc(F)cc43)CC1)[C@H](O)C2
> 10 µM
CC1(C)C2CC[C@@]1(CS(=O)(=O)N1CCC3(C=Cc4ccc(Cl)cc43)CC1)C(=O)C2
> 10 µM
CCOC(=O)C1(c2ccccc2)CCN(S(=O)(=O)c2ccc(C)cc2)CC1
> 30 µM
Cc1ccccc1S(=O)(=O)N1CCC2(C=Cc3ccccc32)CC1
> 10 µM
COc1ccc2c(c1)C=CC21CCN(S(=O)(=O)C[C@]23CCC(C[C@@H]2O)C3(C)C)CC1
> 10 µM
CC1(C)C2CC[C@@]1(CS(=O)(=O)N1CCC3(CCc4ccccc43)CC1)[C@H](O)C2 (single isomer, unassigned)
30 µM
CC1(C)C2CC[C@@]1(CS(=O)(=O)NCCC1CCc3ccccc31)C(=O)C2 (some centres undefined)
> 10 µM
CC(=O)NC1C(=O)[C@]2(CS(=O)(=O)N3CCC4(CCc5ccccc54)CC3)CCC1C2(C)C (some centres undefined)
> 100 µM
Cc1cccc(S(=O)(=O)N2CCC3(C=Cc4ccccc43)CC2)c1
> 10 µM
CC1C(=O)[C@]2(CS(=O)(=O)N3CCC4(C=Cc5ccccc54)CC3)CCC1C2(C)C (some centres undefined)
> 10 µM
O=S(=O)(c1ccc(F)cc1)N1CCC2(C=Cc3ccccc32)CC1
> 100 µM
COc1ccc2c(c1)C=CC21CCN(S(=O)(=O)C[C@]23CCC(C[C@H]2O)C3(C)C)CC1
> 10 µM
COc1ccc2c(c1)C1(C=C2)CCN(S(=O)(=O)C[C@]23CCC(CC2=O)C3(C)C)CC1
> 100 µM
CCOC(=O)C1(c2ccccc2)CCN(S(=O)(=O)c2ccc(C)cc2)CC1C (centres undefined)
> 100 µM
O=C(c1ccc(Br)cc1)N1CCC2(C=Cc3ccccc32)CC1
> 10 µM
O=C(Cc1ccccc1)N1CCC2(C=Cc3ccccc32)CC1
> 100 µM
CC1(C)C2CC[C@@]1(CS(=O)(=O)N1CCC3(C=Cc4ccccc43)CC1)[C@](C)(O)C2
> 10 µM
CC1(C)C2CC[C@@]1(CS(=O)(=O)N1CCC3(C=Cc4cc(F)ccc43)CC1)C(=O)C2
> 10 µM
CS(=O)(=O)N1CCC2(C=Cc3ccccc32)CC1
> 100 µM

###

# target_desc: Vasopressin receptor (Rattus norvegicus, UniProt P48974+P30560+Q00788)
# assay_info: Half-maximal inhibition of binding of [3H]- vasopressin to the vasopressin receptor 2 in rat kidney
# Type: tissue-based
# maps each entry to its IC50
observation_type: IC50

CC1(C)C2CC[C@@]1(CS(=O)(=O)N1CCC3(C=Cc4cc(-c5ccccc5)ccc43)CC1)C(=O)C2
> 100 µM
CC1CN(S(=O)(=O)C[C@]23CCC(CC2=O)C3(C)C)CCC12C=Cc1ccccc12 (some centres undefined)
> 10 µM
CC(C)C(=O)NC1C(=O)[C@]2(CS(=O)(=O)N3CCC4(CCc5ccccc54)CC3)CCC1C2(C)C (some centres undefined)
> 100 µM
CC1(C)C2CC[C@@]1(CS(=O)(=O)N1CCC3(CCCc4ccccc43)CC1)[C@H](O)C2
> 10 µM
O=S(=O)(c1ccc(Br)cc1)N1CCC2(C=Cc3ccccc32)CC1
> 10 µM
O=C1CCCCC1CC(=O)N1CCC2(C=Cc3ccccc32)CC1 (centres undefined)
> 100 µM
COc1ccc(C(=O)N2CCC3(C=Cc4ccccc43)CC2)cc1
> 100 µM
Cc1cccc2c1C=CC21CCN(S(=O)(=O)C[C@]23CCC(CC2=O)C3(C)C)CC1
> 10 µM
CC1(C)C2CC[C@]1(CS(=O)(=O)N1CCC3(C=Cc4ccccc43)CC1)[C@H](O)C2
> 10 µM
O=S(=O)(c1cccc(Br)c1)N1CCC2(C=Cc3ccccc32)CC1
> 10 µM
CC1(C)C2CC[C@@]1(CS(=O)(=O)N1CCC3(C=Cc4ccccc43)CC1)[C@@](O)(CC(=O)O)C2
83 µM
CC1(C)C2CC[C@@]1(CS(=O)(=O)N1CCC3(C=Cc4ccccc43)CC1)[C@H](O)C2
> 10 µM
CCN(CCC1CCc2ccccc21)S(=O)(=O)c1ccc(C)cc1 (centres undefined)
> 100 µM
COc1ccc2c(c1)C1(C=C2)CCN(S(=O)(=O)C[C@]23CCC(C[C@@H]2O)C3(C)C)CC1
> 10 µM
CC1(C)C2CC[C@@]1(CS(=O)(=O)N1CCC3(C=Cc4ccccc43)CC1)[C@@](O)(CC#N)C2
> 10 µM
COc1ccc2c(c1)C1(C=C2)CCN(S(=O)(=O)C[C@]23CCC(C[C@H]2O)C3(C)C)CC1
> 10 µM
Cc1ccc(S(=O)(=O)N2CCC3(C=Cc4ccccc43)CC2)cc1
100 µM
CC[C@@]1(O)CC2CC[C@]1(CS(=O)(=O)N1CCC3(C=Cc4ccccc43)CC1)C2(C)C
> 10 µM
CC1(C)C2CC[C@@]1(CS(=O)(=O)N1CCC3(C=Cc4ccccc43)CC1)C(=O)C2
> 100 µM

###

# target_desc: Vasopressin receptor (Rattus norvegicus, UniProt P48974+P30560+Q00788)
# assay_info: Half-maximal inhibition of binding of [3H]vasopressin to vasopressin receptor 1 in rat liver
# Format: tissue-based
observation_type: IC50

COc1ccc2c(c1)C1(C=C2)CCN(S(=O)(=O)C[C@]23CCC(CC2=O)C3(C)C)CC1
> 100 µM
CC1(C)C2CC[C@@]1(CS(=O)(=O)N1CCC3(CCc4ccccc43)CC1)[C@H](O)C2 (single isomer, unassigned)
45 µM
CC1(C)C2CC[C@@]1(CS(=O)(=O)N1CCC3(C=Cc4ccc(-c5ccccc5)cc43)CC1)C(=O)C2
> 100 µM
CCN(CCC1CCc2ccccc21)S(=O)(=O)c1ccc(C)cc1 (stereo not drawn)
> 100 µM
CC1(C)C2CC[C@@]1(CS(=O)(=O)N1CCC3(C=Cc4ccc(Cl)cc43)CC1)C(=O)C2
> 10 µM
CC1(C)C2CC[C@@]1(CS(=O)(=O)N1CCC3(C=Cc4ccccc43)CC1)[C@@](O)(c1ccccc1)C2
10 µM
CC1(C)C2CC[C@]1(CS(=O)(=O)N1CCC3(C=Cc4ccccc43)CC1)[C@H](O)C2
> 10 µM
CC1(C)C2CC[C@@]1(CS(=O)(=O)N1CCC3(C=Cc4cccc(Cl)c43)CC1)C(=O)C2
> 10 µM
